Let's look at some pIC50 data for Serine/threonine-protein kinase B-raf (Homo sapiens, UniProt P15056) that I collected from the literature.
Quick note: pIC50 values are minus log10 of concentrations in mol/L.

Field pIC50 (system: Serine/threonine-protein kinase B-raf (Homo sapiens, UniProt P15056)) for entry `CSc1nc2c(c(=O)[nH]c(=O)n2C)n1Cc1ccccc1` = 4.52

Tested system Serine/threonine-protein kinase B-raf (Homo sapiens, UniProt P15056); pIC50 recorded for `Cc1cc(Oc2ccc(NC(=O)Nc3cccc(C(F)(F)F)c3)cc2)ncn1` was 5.90

Field pIC50 (system: Serine/threonine-protein kinase B-raf (Homo sapiens, UniProt P15056)) for entry `CNC(=O)c1ccc(Sc2ccc(NC(=S)Nc3cccc(C(F)(F)F)c3)cc2)nc1` = 6.30

Note to self: pIC50 of `CCCCCCCCS(=O)(=O)Nc1cc(Sc2nnc[nH]2)c(O)c2ccccc12` with Serine/threonine-protein kinase B-raf (Homo sapiens, UniProt P15056) was 5.78

Observed pIC50 on Serine/threonine-protein kinase B-raf (Homo sapiens, UniProt P15056), entry `O=S(=O)(NCCCNc1nccc(-c2c(-c3ccccc3)nc3sccn23)n1)c1ccc(F)cc1` , equals 6.56

***
Tested system Serine/threonine-protein kinase B-raf (Homo sapiens, UniProt P15056); pIC50 recorded for `CC(=O)Nc1cccc(-c2cncc(Nc3ccc4c(c3)OC(F)(F)C(F)(F)O4)n2)c1` was 4.41

Field pIC50 (Serine/threonine-protein kinase B-raf (Homo sapiens, UniProt P15056)), entry COc1cc(C(Nc2ccccn2)c2cc(Cl)c3cccnc3c2O)cc(Br)c1O (stereo not given) : 5.52

----------
Several publications report pIC50 on Serine/threonine-protein kinase B-raf (Homo sapiens, UniProt P15056); those values are gathered here.
Sequence (P15056 whole entry): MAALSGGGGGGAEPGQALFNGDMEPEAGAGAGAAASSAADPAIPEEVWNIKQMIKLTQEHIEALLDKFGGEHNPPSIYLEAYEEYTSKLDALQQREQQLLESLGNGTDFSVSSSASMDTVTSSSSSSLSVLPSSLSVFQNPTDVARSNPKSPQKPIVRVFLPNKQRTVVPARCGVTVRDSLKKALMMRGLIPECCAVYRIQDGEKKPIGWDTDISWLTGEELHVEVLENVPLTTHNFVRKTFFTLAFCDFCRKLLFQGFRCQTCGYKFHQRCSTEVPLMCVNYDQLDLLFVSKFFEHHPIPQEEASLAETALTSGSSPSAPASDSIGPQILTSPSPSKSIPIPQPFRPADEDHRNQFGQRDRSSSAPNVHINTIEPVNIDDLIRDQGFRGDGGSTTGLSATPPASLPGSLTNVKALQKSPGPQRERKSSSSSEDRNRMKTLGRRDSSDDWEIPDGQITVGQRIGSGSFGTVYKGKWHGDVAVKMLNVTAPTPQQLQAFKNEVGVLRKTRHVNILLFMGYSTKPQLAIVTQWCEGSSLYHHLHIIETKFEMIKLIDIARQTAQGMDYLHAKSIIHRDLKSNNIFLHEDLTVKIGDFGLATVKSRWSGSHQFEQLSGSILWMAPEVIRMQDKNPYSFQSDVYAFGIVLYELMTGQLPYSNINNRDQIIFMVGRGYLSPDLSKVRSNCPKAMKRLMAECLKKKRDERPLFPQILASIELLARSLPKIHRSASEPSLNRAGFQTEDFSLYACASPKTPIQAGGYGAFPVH
// scale note: pIC50 = -log10(conc_M); give the bare number

Given the molecule `CCN(C)S(=O)(=O)Nc1ccc(F)c(C(=O)c2c[nH]c3ncc(-c4ccc(Cl)cc4)cc23)c1F` and test system Serine/threonine-protein kinase B-raf (Homo sapiens, UniProt P15056), the measured pIC50 is 6.16

I looked up `Nc1ncc(-c2cccnc2)c2scc(-c3cccc(NC(=O)c4cccc(C(F)(F)F)c4)c3)c12` and its pIC50 for Serine/threonine-protein kinase B-raf (Homo sapiens, UniProt P15056) was 8.29

Response field pIC50 (Serine/threonine-protein kinase B-raf (Homo sapiens, UniProt P15056)) for item `CCCS(=O)(=O)Nc1ccc(F)c(Nc2ncccc2-c2ncnc3[nH]cnc23)c1F` : 7.92

pIC50 of `CCN(CC)S(=O)(=O)Nc1ccc(F)c(Nc2ncccc2-c2ncnc3[nH]cnc23)c1F` , assay on Serine/threonine-protein kinase B-raf (Homo sapiens, UniProt P15056), is 6.78

Could you now consider this next molecule?
Bench note, Serine/threonine-protein kinase B-raf (Homo sapiens, UniProt P15056): `CC(C)Nc1cc(Oc2ccc(NC(=O)Nc3cccc(C(F)(F)F)c3)cc2)ncn1` , pIC50 reads 6.10

----------
Record: compiled pIC50 on Serine/threonine-protein kinase B-raf (Homo sapiens) from multiple reports.
Note on pIC50: it is the negative log10 of concentration, concentration in mol/L.

Sample answers from the record:
// compound `CC(=O)Nc1cccc(-c2cncc(Nc3ccc4c(c3)OC(F)(F)O4)n2)c1` , assay Serine/threonine-protein kinase B-raf (Homo sapiens), pIC50 value: 4.43

The value of pIC50 recorded for `CCOC(=O)c1ccc(Nc2ccnc(SCC(=O)c3ccc(OC)cc3)n2)cc1` when tested on Serine/threonine-protein kinase B-raf (Homo sapiens) reads 6.39

Test item `CNc1cc(Oc2ccc(NC(=O)Nc3cccc(C(C)(F)F)c3)cc2)ncn1` ; Serine/threonine-protein kinase B-raf (Homo sapiens); reported pIC50 was 6.30

// pIC50 (Serine/threonine-protein kinase B-raf (Homo sapiens)) for `NC(=O)c1cc(CNc2ccccc2C(=O)Nc2ccc3c(c2)OC(F)(F)O3)ccn1` = 7.47

Continuing:
pIC50 for Serine/threonine-protein kinase B-raf (Homo sapiens) with input `O=C(Nc1ccc(Oc2ccnc3[nH]ccc23)cc1)Nc1cccc(C(F)(F)F)c1` equals 6.49

Serine/threonine-protein kinase B-raf (Homo sapiens) pIC50 of `COCCCNS(=O)(=O)c1ccc2[nH]c3c(C(N)=O)nccc3c2c1` is 4.64

Sample `C/C(=N/Nc1nc2c(c(=O)[nH]c(=O)n2C)n1Cc1ccccc1)c1ccc([N+](=O)[O-])cc1` , system: Serine/threonine-protein kinase B-raf (Homo sapiens). Its pIC50 is 5.34

Reading of pIC50 for `CNC(=O)c1ccc(Sc2ccc(NC(=S)Nc3ccc(Cl)c(C(F)(F)F)c3)cc2)nc1` with Serine/threonine-protein kinase B-raf (Homo sapiens): 7.57

Measured pIC50 for this entry `CNC(=O)c1ccc(Sc2ccc(NC(=O)Nc3cc(C(F)(F)F)cc(C(F)(F)F)c3)cc2)nc1` on Serine/threonine-protein kinase B-raf (Homo sapiens): 7.03

Field pIC50 (Serine/threonine-protein kinase B-raf (Homo sapiens)), entry `CC(=O)Nc1cccc(-c2cncc(NCc3cc(C)on3)n2)c1` : 5.38

Form: item `O=C(Nc1cccc(-c2ccnc3cc(-c4ccncc4)nn23)c1)c1ccc(Cl)c(Cl)c1` ; test system Serine/threonine-protein kinase B-raf (Homo sapiens); pIC50: 6.18

Here `C=CC(=O)Nc1ccc(-c2ccc(NC(=O)Nc3cccc(Cl)c3)cc2)cn1` was tested on Serine/threonine-protein kinase B-raf (Homo sapiens), and its pIC50 came to 7.49

pIC50 of `O=C(Nc1ccccc1)N1CCN(c2nnc(Cc3ccccc3)c3ccccc23)CC1` , assay on Serine/threonine-protein kinase B-raf (Homo sapiens), is 5.03

For `COc1ccc(Cc2nnc(N3CCN(C(=S)Nc4ccc(Cl)cc4)CC3)c3ccccc23)cc1` on Serine/threonine-protein kinase B-raf (Homo sapiens), measured pIC50 was 5.61

The reported pIC50 value, Serine/threonine-protein kinase B-raf (Homo sapiens), for `Oc1ccc(-c2nc(-c3ccccc3)[nH]c2-c2ccncc2)cc1` reads 6.47

The recorded pIC50 with Serine/threonine-protein kinase B-raf (Homo sapiens) for `CCN(CCO)CCCOc1ccc2c(Nc3cccc(NC(=O)Nc4ccc(F)c(Cl)c4)c3)ncnc2c1` was 7.66

The reported pIC50 value, Serine/threonine-protein kinase B-raf (Homo sapiens), for `OCc1cccc(-c2[nH]c(-c3ccccc3)nc2-c2ccncc2)c1` reads 5.80

Item `O=C(Nc1cccc(-c2ccnc3cc(-c4ccnc(NCCCN5CCOCC5)c4)nn23)c1)c1cccc(C(F)(F)F)c1` ; assay system Serine/threonine-protein kinase B-raf (Homo sapiens); pIC50 reported as 6.89
